Target: T1, human WISE (human, UniProt Q6X4U4 24-206)
T1 construct: Recombinant, made in E. coli or mammalian cells; biotinylated in the ELISAs, amine-coupled to CM5 in Biacore; also called huWise; huWISE
T1 sequence: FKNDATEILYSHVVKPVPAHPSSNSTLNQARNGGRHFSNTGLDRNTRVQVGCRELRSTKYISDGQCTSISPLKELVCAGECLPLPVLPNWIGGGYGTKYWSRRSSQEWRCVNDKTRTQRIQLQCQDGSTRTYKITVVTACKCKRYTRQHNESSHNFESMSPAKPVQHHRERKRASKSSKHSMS
Assay: assay not specified (IgG2 from transient transfection)
Value kind: binding result

[
  {
    "Binder": "Ab-16 (antibody, human IgG2, kappa, V domains shown, Phage-derived human light chain with the humanized Ab-C IgG2 heavy chain) VH: QVQLVQSGAEVKKPGSSVKVSCKASGGTFSSTYISWVRQAPGQGLEWMGWIYAGTGGTRYNRKFTGRVTITADESTSTAYMELSSLRSEDTAVYYCAREGVDGWFTYWGQGTLVTVSS VL: DIQLTQSPFSLSASVGDRVTITCRASQSINDNLNWYLQKPGKAPKLLIFAASTSQSGVPSRFSGNGFGTDFSLIISGLQPEDVGTYYCQQNDSMPFTFGQGTRLDIKR",
    "Reported": "binds"
  },
  {
    "Binder": "Ab-28 (antibody, human IgG2, kappa, V domains shown, Phage-derived human light chain with the humanized Ab-C IgG2 heavy chain) VH: QVQLVQSGAEVKKPGSSVKVSCKASGGTFSSTYISWVRQAPGQGLEWMGWIYAGTGGTRYNRKFTGRVTITADESTSTAYMELSSLRSEDTAVYYCAREGVDGWFTYWGQGTLVTVSS VL: DIQMTQSPSSLSASVGDRVTITCRASQSISDYLNWYQQRPGKAPNLLIFASNTLQGGVPSRFRGSGSGTDFTLTINSLQHEDFGTYYCQQSYRTPLTFGGGTKVEIKR",
    "Reported": "binds"
  },
  {
    "Binder": "light chain of SEQ ID NO: 104 paired with the heavy chain of SEQ ID NO: 24 (antibody, human IgG2, lambda, V domains shown, Phage-derived human light chain with the humanized Ab-C IgG2 heavy chain) VH: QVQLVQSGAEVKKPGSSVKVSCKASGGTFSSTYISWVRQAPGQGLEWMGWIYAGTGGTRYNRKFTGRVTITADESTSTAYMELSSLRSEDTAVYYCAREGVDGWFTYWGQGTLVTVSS VL: NFMLTQPHSVSESPGKTVTISCTRNSGSIASNYVQWYQQRPGSSPATVIYEDNQRPSGVPDRFSGSIDISSNSASLTISGLKTEDEADYYCQSYDSSNPFYVFGTGTKVTVLG",
    "Reported": "binds"
  }
]

Just for reference, patent US20090130114A1 is where these values come from.
